// provenance: paper PMC6958387

Measurement Label: melting point

Please review the entries below; each comes with its answer.
NC(=O)NN=Cc1ccc(Cl)c(Cl)c1	246 to 247 °C
NC(=O)NN=Cc1ccc(Cl)cc1	235 to 236 °C
COc1cc(C=NNC(N)=O)ccc1O	237 to 239 °C
Cc1ccc(C=NNC(N)=O)cc1	215 to 217 °C
NC(=O)N/N=C/c1ccco1	202 to 204 °C
NC(=O)NN=Cc1ccncc1	225 to 226 °C
NC(=O)NN=Cc1cccs1	227 to 230 °C
CC(C)(C)c1ccc(C=NNC(N)=O)cc1	216 to 218 °C

Lab note: "NC(=O)NN=Cc1ccc(Br)cc1" gave melting point of 237 to 239 °C

Record "COc1ccc(C=NNC(N)=O)cc1" , field melting point: 210 to 212 °C

====

Molecular target: DYRK1A (Rattus norvegicus)
Construct: amino acids 1 to 499 including the kinase domain; made in house; host or cells: bacteria
Assay: Kinase inhibition assay (ADP-Glo)
Format: biochemical
Settings: 10 µM ATP
Procedure: RnDYRK1A (Rattus norvegicus, amino acids 1 to 499 including the kinase domain, recombinant, expressed in bacteria, DNA vector kindly provided by Dr. W. Becker, Aachen, Germany) was assayed in buffer A with 0.033 μg/µL of the following peptide: KKISGRLSPIMTEQ as substrate.
Measurement Label: pIC50
In plain terms, pIC50 is the concentration in mol/L turned into minus its base-10 logarithm.

pIC50 for DYRK1A (Rattus norvegicus) with input NC(=O)N/N=C/c1c(O)ccc2ccccc12 [Compound 3c, 2-Hydroxynaphthaldehyde Semicarbazone] equals 7.14

====

biological target: panel of ten different protein kinases; test: Kinase inhibition, panel of ten protein kinases; conditions: 3c: except towards HASPIN, CK1 and GSK3; inactive = IC50 > 10 μM; read-out: IC50 across the kinase panel
pIC50: −log10 of the molar value.
Parameter pIC50: see the listing below.

NC(=O)N/N=C/c1c(O)ccc2ccccc12 [Compound 3c, 2-Hydroxynaphthaldehyde Semicarbazone]	5.29 to 7.14

Memo: "Cc1ccc(C=NNC(N)=O)cc1" , reported pIC50: < 5.00

====

molecular target: CDK2/CyclinA (Homo sapiens); assay: Kinase inhibition assay (ADP-Glo); type: biochemical; details: 10 µM ATP
Recorded IC50 values for a group of compounds are listed next.

Below are worked cases with known answers.
CCCCN(N=Cc1ccc([N+](=O)[O-])o1)C(N)=O	> 10 µM
Cc1ccc(C=NNC(N)=O)cc1	> 10 µM
NC(=O)NN=Cc1ccc(Cl)cc1	> 10 µM
CC(C)(C)c1ccc(C=NNC(N)=O)cc1	> 10 µM
NC(=O)NN=Cc1ccc(Cl)c(Cl)c1	> 10 µM

Value of IC50 reported for the compound "NC(=O)NN=Cc1ccc(Br)cc1" is > 10 µM

Value of measured IC50 for the entry NC(=O)N/N=C/c1c(O)ccc2ccccc12 [Compound 3c, 2-Hydroxynaphthaldehyde Semicarbazone] : 0.53 µM

====

target: PIM1 (Homo sapiens)
Sequence (P11309 whole entry): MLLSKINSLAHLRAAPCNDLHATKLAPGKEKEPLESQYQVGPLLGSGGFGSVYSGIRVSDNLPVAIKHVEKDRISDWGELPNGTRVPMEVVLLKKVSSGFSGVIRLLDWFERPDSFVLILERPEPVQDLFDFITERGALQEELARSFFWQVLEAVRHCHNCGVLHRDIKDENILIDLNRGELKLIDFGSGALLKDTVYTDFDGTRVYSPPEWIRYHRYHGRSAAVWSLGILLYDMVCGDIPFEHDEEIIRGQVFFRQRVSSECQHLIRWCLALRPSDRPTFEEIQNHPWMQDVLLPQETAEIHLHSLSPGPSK
Measurement Label: IC50

NC(=O)N/N=C/c1c(O)ccc2ccccc12 [Compound 3c, 2-Hydroxynaphthaldehyde Semicarbazone]	0.52 µM
NC(=O)NN=Cc1ccc(Cl)cc1 [Compound 3e, 4-Chlorobenzaldehyde Semicarbazone]	> 10 µM

As a next step, examine the compound that follows.
Sure, the documented IC50 for Cc1ccc(C=NNC(N)=O)cc1 [Compound 3g, 4-Methylbenzaldehyde Semicarbazone] is > 10 µM
